experimental.target: T1, THAP1 THAP domain WT (human, UniProt Q9NVV9 1-81)
T1 sequence: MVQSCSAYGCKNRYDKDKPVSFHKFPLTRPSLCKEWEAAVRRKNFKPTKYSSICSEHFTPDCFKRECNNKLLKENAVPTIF
assay.remarks: fluorescence quenching
# Kd values compiled below
Reply numerically in µM, unit not repeated.

binder: RRM1 16-bp DNA probe (dsDNA) DNA 1: GCTTGTGTGGGCAGCG DNA 2: CGCTGCCCACACAAGC
Kd (µM): 0.15

QUERY: Looking for the measured Kd of 14-bp non-specific DNA (ns) (dsDNA) DNA 1: GATTTGCATTTTAA DNA 2: TTAAAATGCAAATC , can you help?
RESULT: 1.8
